Molecular target: FGFR1 (Homo sapiens (Human), UniProt P11362)
Sequence (P11362 22-822): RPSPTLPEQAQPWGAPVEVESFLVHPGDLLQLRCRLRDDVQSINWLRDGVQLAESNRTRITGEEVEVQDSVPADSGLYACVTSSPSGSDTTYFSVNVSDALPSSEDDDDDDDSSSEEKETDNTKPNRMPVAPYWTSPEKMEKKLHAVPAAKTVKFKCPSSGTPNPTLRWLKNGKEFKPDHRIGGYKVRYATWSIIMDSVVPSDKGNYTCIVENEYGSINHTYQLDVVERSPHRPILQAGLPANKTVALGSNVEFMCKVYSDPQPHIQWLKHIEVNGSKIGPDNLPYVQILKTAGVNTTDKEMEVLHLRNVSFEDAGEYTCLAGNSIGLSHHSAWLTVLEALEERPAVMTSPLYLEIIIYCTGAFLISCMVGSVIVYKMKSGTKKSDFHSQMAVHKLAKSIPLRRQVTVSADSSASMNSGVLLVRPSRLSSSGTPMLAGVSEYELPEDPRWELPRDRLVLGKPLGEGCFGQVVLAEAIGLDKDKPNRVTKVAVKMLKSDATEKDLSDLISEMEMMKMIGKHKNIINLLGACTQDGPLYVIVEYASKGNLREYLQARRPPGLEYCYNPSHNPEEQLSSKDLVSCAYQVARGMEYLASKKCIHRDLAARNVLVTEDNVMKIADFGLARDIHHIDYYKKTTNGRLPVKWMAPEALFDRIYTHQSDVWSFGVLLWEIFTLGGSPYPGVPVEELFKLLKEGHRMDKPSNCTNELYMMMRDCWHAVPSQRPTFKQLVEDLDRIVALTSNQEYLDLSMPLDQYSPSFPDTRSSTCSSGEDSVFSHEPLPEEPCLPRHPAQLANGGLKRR
Assay: FGFR Enzymatic Assay (FRET peptide phosphorylation), FGFR1
Settings: IC50 ratio showing FGFR4 selectivity; pre-incubated for 5 to 10 minutes
reported property: FGFR1/FGFR4

- compound: "C=CC(=O)Nc1cc(-c2cc3c(cn2)CN(c2c(F)c(OC)cc(OC)c2F)C(=O)C32CC2)ccc1CN1CCOCC1 [Example 12]"
  reported property: "FGFR1/FGFR4"
  measured result: ">10"

// query Give the value of FGFR1/FGFR4 reported for the following: C=CC(=O)Nc1cc(CN2CCOCC2)cc(-c2cc3c(cn2)CN(c2c(F)c(OC)cc(OC)c2F)C(=O)C32CC2)c1 [Example 11]
// result >100

// query Give the value of FGFR1/FGFR4 reported for the following: C=CC(=O)Nc1cnc(C)c(-c2cc3c(cn2)CN(c2c(F)c(OC)cc(OC)c2F)C(=O)C32CC2)c1 [Example 7]
// result >100

// query Give the value of FGFR1/FGFR4 reported for the following: C=CC(=O)Nc1cc(-c2cc3c(cn2)CN(c2c(F)c(OC)cc(OC)c2F)C(=O)C32CC2)cc(N2CCOCC2)c1 [Example 10]
// result >100

// query Give the value of FGFR1/FGFR4 reported for the following: C=CC(=O)Nc1cc(-c2cc3c(cn2)CN(c2c(F)c(OC)cc(OC)c2F)C(=O)C32CC2)c(C)cc1F [Example 6]
// result >100

// query Give the value of FGFR1/FGFR4 reported for the following: C=CC(=O)N1CCCC(c2cc3c(cn2)CN(c2c(F)c(OC)cc(OC)c2F)C(=O)C32CC2)C1 (centres unmarked) [Example 8]
// result >5

// query Give the value of FGFR1/FGFR4 reported for the following: C=CC(=O)Nc1ccc(C#N)c(-c2cc3c(cn2)CN(c2c(F)c(OC)cc(OC)c2F)C(=O)C32CC2)c1 [Example 5]
// result >100

// query Give the value of FGFR1/FGFR4 reported for the following: C=CC(=O)Nc1ccc(C)c(-c2cc3c(cn2)CN(c2c(F)c(OC)cc(OC)c2F)C(=O)C32CC2)c1 [Example 2]
// result >100

====

Each entry below lists one item and its recorded FGFR2/FGFR4 value.
Molecular target: FGFR2 (Homo sapiens (Human), UniProt P21802)
Sequence (P21802 22-821): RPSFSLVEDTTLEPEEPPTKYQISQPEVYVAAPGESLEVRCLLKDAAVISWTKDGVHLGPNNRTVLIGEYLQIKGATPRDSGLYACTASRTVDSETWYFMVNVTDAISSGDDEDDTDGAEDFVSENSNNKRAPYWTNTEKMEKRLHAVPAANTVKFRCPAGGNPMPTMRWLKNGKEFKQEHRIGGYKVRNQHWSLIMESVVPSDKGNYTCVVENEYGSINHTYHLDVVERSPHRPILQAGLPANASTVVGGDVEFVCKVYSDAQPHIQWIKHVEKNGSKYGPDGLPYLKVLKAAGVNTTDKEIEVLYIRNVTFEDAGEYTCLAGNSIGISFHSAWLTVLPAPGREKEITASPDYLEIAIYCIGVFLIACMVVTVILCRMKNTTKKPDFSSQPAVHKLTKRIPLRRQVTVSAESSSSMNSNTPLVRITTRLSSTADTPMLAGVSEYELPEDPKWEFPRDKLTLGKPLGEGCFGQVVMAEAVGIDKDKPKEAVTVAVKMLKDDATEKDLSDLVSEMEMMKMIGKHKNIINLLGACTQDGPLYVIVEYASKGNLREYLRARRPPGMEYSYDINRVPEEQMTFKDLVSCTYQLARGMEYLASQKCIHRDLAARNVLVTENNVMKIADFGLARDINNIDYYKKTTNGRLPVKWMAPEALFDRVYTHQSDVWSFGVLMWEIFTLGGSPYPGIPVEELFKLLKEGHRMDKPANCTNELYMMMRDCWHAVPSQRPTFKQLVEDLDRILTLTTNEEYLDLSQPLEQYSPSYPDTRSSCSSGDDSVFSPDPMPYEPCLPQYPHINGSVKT
Experiment: FGFR Enzymatic Assay (FRET peptide phosphorylation), FGFR2
Details: IC50 ratio showing FGFR4 selectivity; pre-incubated for 5 to 10 minutes

Example molecules with recorded FGFR2/FGFR4:
- molecule: "C=CC(=O)N1CCCC(c2cc3c(cn2)CN(c2c(F)c(OC)cc(OC)c2F)C(=O)C32CC2)C1 (centres unmarked)"
  FGFR2/FGFR4: ">1"
- molecule: "C=CC(=O)Nc1ccc(C)c(-c2cc3c(cn2)CN(c2c(F)c(OC)cc(OC)c2F)C(=O)C32CC2)c1"
  FGFR2/FGFR4: ">100"
- molecule: "C=CC(=O)Nc1cc(CN2CCOCC2)cc(-c2cc3c(cn2)CN(c2c(F)c(OC)cc(OC)c2F)C(=O)C32CC2)c1"
  FGFR2/FGFR4: ">100"
- molecule: "C=CC(=O)Nc1cc(-c2cc3c(cn2)CN(c2c(F)c(OC)cc(OC)c2F)C(=O)C32CC2)cc(N2CCOCC2)c1"
  FGFR2/FGFR4: ">100"
- molecule: "C=CC(=O)Nc1cc(-c2cc3c(cn2)CN(c2c(F)c(OC)cc(OC)c2F)C(=O)C32CC2)ccc1CN1CCOCC1"
  FGFR2/FGFR4: ">1"
- molecule: "C=CC(=O)Nc1cnc(C)c(-c2cc3c(cn2)CN(c2c(F)c(OC)cc(OC)c2F)C(=O)C32CC2)c1"
  FGFR2/FGFR4: ">100"

// query Fill in: FGFR2/FGFR4 on FGFR2 (Homo sapiens (Human), UniProt P21802), entry C=CC(=O)Nc1cc(-c2cc3c(cn2)CN(c2c(F)c(OC)cc(OC)c2F)C(=O)C32CC2)c(C)cc1F
// result >100

// query Fill in: FGFR2/FGFR4 on FGFR2 (Homo sapiens (Human), UniProt P21802), entry C=CC(=O)Nc1ccc(C#N)c(-c2cc3c(cn2)CN(c2c(F)c(OC)cc(OC)c2F)C(=O)C32CC2)c1
// result >100

// provenance: patent US9801889B2
